- TARGET OR TEST SYSTEM: ULK1 (Homo sapiens, UniProt O75385)
- Sequence (O75385 1-1050): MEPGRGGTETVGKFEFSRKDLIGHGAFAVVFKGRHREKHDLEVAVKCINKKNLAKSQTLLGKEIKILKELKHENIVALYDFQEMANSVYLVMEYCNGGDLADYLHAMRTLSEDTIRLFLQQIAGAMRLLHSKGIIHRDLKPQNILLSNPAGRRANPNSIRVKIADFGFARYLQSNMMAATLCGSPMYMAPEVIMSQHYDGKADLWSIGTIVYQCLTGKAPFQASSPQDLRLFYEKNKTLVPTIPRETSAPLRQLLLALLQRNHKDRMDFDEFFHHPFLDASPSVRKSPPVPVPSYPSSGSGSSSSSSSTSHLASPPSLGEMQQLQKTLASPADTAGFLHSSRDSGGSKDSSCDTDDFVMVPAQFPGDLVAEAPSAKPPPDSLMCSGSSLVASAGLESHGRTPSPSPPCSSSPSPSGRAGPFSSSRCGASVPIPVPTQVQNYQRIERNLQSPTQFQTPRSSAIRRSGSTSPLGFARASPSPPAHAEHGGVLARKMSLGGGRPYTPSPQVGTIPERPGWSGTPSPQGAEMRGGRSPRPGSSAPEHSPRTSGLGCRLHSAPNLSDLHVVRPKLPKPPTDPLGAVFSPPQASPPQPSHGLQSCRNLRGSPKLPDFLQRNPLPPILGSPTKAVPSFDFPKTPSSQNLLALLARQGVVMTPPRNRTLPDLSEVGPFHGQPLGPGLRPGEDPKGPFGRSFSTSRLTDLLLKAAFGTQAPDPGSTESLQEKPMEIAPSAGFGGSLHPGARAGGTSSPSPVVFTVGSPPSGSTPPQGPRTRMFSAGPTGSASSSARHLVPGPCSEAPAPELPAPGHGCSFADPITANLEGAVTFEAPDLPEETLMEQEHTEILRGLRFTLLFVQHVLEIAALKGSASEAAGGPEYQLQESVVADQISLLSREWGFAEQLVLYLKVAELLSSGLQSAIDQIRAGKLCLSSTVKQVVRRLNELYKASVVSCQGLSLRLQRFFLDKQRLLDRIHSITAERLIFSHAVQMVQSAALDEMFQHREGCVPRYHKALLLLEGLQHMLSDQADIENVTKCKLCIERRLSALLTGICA
PARAMETER MEASURED: IC50

Items follow; give IC50 for each.
1. O=C1CCc2cc(Nc3ncc(C(=O)O)c(NC4CC4)n3)ccc2N1
2. COc1ccc(Nc2nc(Nc3cc(OC)c(OC)c(OC)c3)ncc2C(F)(F)F)cn1
3. Fc1c(Nc2ncc(C(F)(F)F)c(Nc3ccc4c(c3)OCO4)n2)cccc1C(F)(F)F [Compound 141a]
4. N=c1ccon1-c1ncc(C(F)(F)F)c(NC2CC2)n1 [Compound 214b]
5. FC(F)(F)c1cnc(N2CCCC2)nc1Nc1ccc2c(c1)OCO2 [Compound 164a]
6. N#CCc1cccc(Nc2nc(Nc3ccc4c(c3)CCC(=O)N4)ncc2C(F)(F)F)c1
7. COc1ccc(OC)c(Nc2ncc(C(F)(F)F)c(O)n2)c1 [Compound 109b]
8. FC(F)(F)c1cnc(N2CCC2)nc1Nc1ccc2c(c1)OCO2 [Compound 166a]

Result:
> 2 µM
< 0.2 µM
> 2 µM
> 2 µM
> 2 µM
< 0.2 µM
> 2 µM
> 2 µM

Items follow; give IC50 for each.
1. COC(=O)CNc1nc(Nc2ccc3c(c2)CCC(=O)N3)ncc1C(F)(F)F
2. CN(c1ccccc1)c1nc(Nc2ccc3c(c2)CCC(=O)N3)ncc1C(F)(F)F [Compound 184a]

Result:
1. > 2 µM
2. 0.2 to 2 µM

Items follow; give IC50 for each.
1. COc1cc(Nc2ncc(Br)c(Nc3ccccc3CO)n2)cc(OC)c1OC
2. CC1(Nc2nc(Nc3ccc4c(c3)CCC(=O)N4)ncc2C(F)(F)F)COC1 [Compound 220a]
3. COCc1ccccc1Oc1nc(Nc2cc(OC)c(OC)c(OC)c2)ncc1Br
4. FC(F)(F)c1cnc(Nc2cnc3[nH]ccc3c2)nc1NC1CC1 [Compound 152a]
5. Nc1ccccc1Oc1nc(Nc2ccc3c(c2)OCO3)ncc1Br [Compound 321b]
6. O=C1CCc2cc(Nc3ncnc(NC4CC4)n3)ccc2N1
7. O=C1CCc2cc(Nc3ncc(C(F)(F)F)c(OCCN4CCOC4=O)n3)ccc2N1

Result:
1. < 0.2 µM
2. > 2 µM
3. < 0.2 µM
4. < 0.2 µM
5. < 0.2 µM
6. > 2 µM
7. 0.2 to 2 µM

Task: If you can, please state the reported IC50 value of COCC(C)(CN(C)C)Nc1nc(Nc2ccc3c(c2)CCC(=O)N3)ncc1C(F)(F)F (stereo not drawn) [Compound 220c] .
Result: > 2 µM
